- EXPERIMENT NOTES: folding stability dG unfold from chymotrypsin proteolysis; higher = more stable
METRIC NAME: folding stability dG unfold (kcal/mol)

residues="SAGGSAGGSYYMIEIEFPDTGQRITFPFKSLEEAKEFLPPGAPIREIEVQPIKPPVDPEQQNESAGGSAGGS [r12_851_TrROS]" metric_name="folding stability dG unfold" u=kcal/mol measurement=1.31
residues="SAGGSAGGSAGASPSVPFTVKVTIKSPNGLSTKTISLSSLEDLEALPLPNVVEIEITPLSSAGGSAGGSAGG [r17_290_JUSTAS]" metric_name="folding stability dG unfold" u=kcal/mol measurement=0.78
residues="SAGMEIKYTITVSLSSGQTLGTKTITDPGKSIEEIVKEFAKIPGLTLITVTVTNPDGTPTTVTIPVNPSAGG [r19_269_JUSTAS]" metric_name="folding stability dG unfold" u=kcal/mol measurement=3.07
residues="SAGGSAGGSAGGLKELADKLNPGFEIRVENIEPTPGPVRINVRAPNEGVPRSIPIDPDDISAGGSAGGSAGG [r7_303_TrROS]" metric_name="folding stability dG unfold" u=kcal/mol measurement=0.993
